Ref: patent US20080132539A1

tested on: Maillard reaction (lysozyme / fructose, dimer formation); assay: Maillard reaction-inhibiting effects (lysozyme dimer formation with fructose, SDS-PAGE densitometry); format: biochemical; conditions: test compound concentration 0.1 mM; 10 mg/mL lysozyme, 200 mM fructose, pH 7.4, 37° C., 4 days; dimer formation inhibition rate
Use 40% as the dividing line for Maillard reaction-inhibiting activity (%), with the line itself on the fulfilled side and lower values as not fulfilled.

| Molecule | Class name |
| --- | --- |
| N[C@@H](Cc1ccc(O)cc1)C(=O)NO [Compound No. 112, tyrosine hydroxamate] | not fulfilled |
| Cc1ccc(S(=O)(=O)Nc2ccc(C[C@H](N)C(=O)NO)cc2)cc1 | not fulfilled |
| Cc1ccc(C(=O)Nc2ccc(C[C@H](N)C(=O)NO)cc2)cc1 | fulfilled |
| NC(Cc1c[nH]c2ccccc12)C(=O)NO (centres unmarked) [Compound No. 113, tryptophan hydroxamate] | fulfilled |
| CC(C)(C)c1ccc(Cn2cc(CC(N)C(=O)NO)c3ccccc32)cc1 (racemic) | fulfilled |
| CCCCCN(CCCCC)CCC[C@H](N)C(=O)NO | not fulfilled |
| CC(C)(C)c1ccc(Cn2c(CC[C@H](N)C(=O)NO)nc3ccccc32)cc1 | fulfilled |
| N[C@@H](CCCNC1CCCCC1)C(=O)NO | not fulfilled |
